Biological target: Glycogen synthase kinase-3 beta (Homo sapiens)
Sequence (P49841 whole entry): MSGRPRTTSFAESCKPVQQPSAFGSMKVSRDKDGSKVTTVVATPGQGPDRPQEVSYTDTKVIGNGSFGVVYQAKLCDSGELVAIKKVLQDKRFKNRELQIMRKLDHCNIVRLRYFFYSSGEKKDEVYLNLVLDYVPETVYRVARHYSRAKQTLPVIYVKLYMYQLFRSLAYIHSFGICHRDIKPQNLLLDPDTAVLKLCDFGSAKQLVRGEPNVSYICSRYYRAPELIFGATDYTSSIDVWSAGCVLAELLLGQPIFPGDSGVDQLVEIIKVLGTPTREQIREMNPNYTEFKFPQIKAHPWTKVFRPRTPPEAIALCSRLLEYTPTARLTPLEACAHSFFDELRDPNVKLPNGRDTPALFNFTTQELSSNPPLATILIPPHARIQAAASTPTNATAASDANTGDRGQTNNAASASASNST
reported.endpoint: IC50 (µM)
Give your result in µM as a bare value.

Quick check: IC50 of O[C@]12C=C(c3nccc4c3[nH]c3ccccc34)[C@@H]3CCN(CCCC/C=C\CC1)C[C@@]31C[C@@H]3/C=C\CCCCN3[C@H]12 ?
10

----------
Assignment: determine reported IC50 for the given compounds.
System: Plasmodium falciparum
Test: Antimalarial activity against chloroquine-sensitive Plasmodium falciparum D6 as LDH activity
Type: functional, organism-based
Answer format: numeric, µg/mL implied, no suffix.

Fill in the blank: the reported IC50 of C[C@@H]1CC[C@H]2[C@@H](C)C(=O)O[C@@H]3O[C@@]4(C)CC[C@@H]1[C@]32OO4 is ____.
0.0043

# IC50 lookup, item COc1cccc2c1[nH]c1c(C3=C[C@@]4(O)CC/C=C\CCCCN5CC[C@@H]3[C@]3(C[C@@H]6/C=C\CCCCN6[C@H]34)C5)nccc12
0.037

Requested field: IC50. Item: CC(=O)Oc1cccc2c1[nH]c1c(C3=C[C@@]4(O)CC/C=C\CCCCN5CC[C@@H]3[C@]3(C[C@@H]6/C=C\CCCCN6[C@H]34)C5)nccc12
0.0096

Form field: reported IC50 of CC(=O)Oc1cccc2c1[nH]c1c(C3=C[C@@]4(OC(C)=O)CC/C=C\CCCCN5CC[C@@H]3[C@]3(C[C@@H]6/C=C\CCCCN6[C@H]34)C5)nccc12
1.3
